# method: protein stability index of a GFP-peptide fusion (GPS, HEK-293T) (PSI 1-6); higher = more stable;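 further: 24-mer peptide tiles fused after GFP, lentivirally expressed, FACS-sorted into six equal bins by GFP/DsRed ratio, decoded by Illumina sequencing, PSI is the read-weighted mean bin number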
# recorded_conditions: treatment: MLN4924 1 uM, 8 h; c terminus: a fixed tail appended
// bucketize protein stability index: 0 = under 3, 1 = from 3 up to 4, 2 = 4 and over

Look over these answered cases.
Hi there! Could you help me figure out the category for KLTDFGFAKKLVDRTWTLCGTPEY [PRKX] please?
0

Hi there! Could you help me figure out the category for LSIINFFERLCLTWMFFFMMCVAE [PHTF1] please?
0

Hi there! Could you help me figure out the category for RAGPDSAGIALYSHEDVCVFKCSV [CARM1] please?
0

Hi there! Could you help me figure out the category for PSLEDISCNTWPSMPSYSSCTVTT [TBX5] please?
1

Hi there! Could you help me figure out the category for TQARQVMEREFNNLLALGTDRKLD [PPFIA4] please?
2

Hi there! Could you help me figure out the category for LLMAVVSMFTLPVVYVKHQAQIDQ [RTN1] please?
1

Hi there! Could you help me figure out the category for IKMMQAVRQAFQDQDDRRTWDGRP [GFOD1] please?
1

Hi there! Could you help me figure out the category for ATITSRGSSLSGSLCSLLESQSTS [LURAP1L] please?
1

Hi there! Could you help me figure out the category for GCGWRCPEHGDRVAELFCRRCRRC [TRIM14] please?
2

Hi there! Could you help me figure out the category for LGNLVEGLDFHRFYFENLWSRNSK [CAMK2A] please?
0

More entries:
Hi there! Could you help me figure out the category for GHAAPGTDAGKAFCMFYAVLGIPL [KCNK9] please?
0

Hi there! Could you help me figure out the category for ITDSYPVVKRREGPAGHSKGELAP [POLD4] please?
2

Hi there! Could you help me figure out the category for SYLMLVTVMMWPLAVYHRLWDRAY [RETREG3] please?
0

Hi there! Could you help me figure out the category for LRESIASYLSLTSEDNTSFDRKKK [SLA] please?
1

Hi there! Could you help me figure out the category for LTEQQEQLRGQLQDLDSRLRAGSS [RASAL3] please?
2

Hi there! Could you help me figure out the category for RLKEMKLLRDQFVKALEDFEDLCD [FAM9B] please?
0

Hi there! Could you help me figure out the category for LDFLPKDVKKEKLSPDIMKDAYVQ [TENT5D] please?
1

Hi there! Could you help me figure out the category for AAETRGAVEGAARTTPSRREITGV [PALM] please?
2

Hi there! Could you help me figure out the category for KEHAVTMPCTWVMACAYAPSGCAI [GNB5] please?
0

Hi there! Could you help me figure out the category for PDQVAPFTFLQPLPLSPGVLSSTP [ATF4] please?
1

###

# method: protein stability index of a GFP-peptide fusion (GPS, HEK-293T) (PSI 1-6); higher = more stable
# recorded_conditions: treatment: MLN4924 1 uM, 8 h; c terminus: a fixed tail appended
Kindly state protein stability index for each of the entries shown.

Past entries and their recorded results:
Indicate its recorded protein stability index; the sequence in question is PLHELITMNRRVCVLMLLAAWIGG [OR4A15]
2.92

Indicate its recorded protein stability index; the sequence in question is EDSAESRPWRAGVLAEGDNASRSL [PSD2]
5.14

Indicate its recorded protein stability index; the sequence in question is SGRLSASWEPLSGPSTPSPVAAQF [FCHO1]
3.02

With those in mind, consider the next sequence.
Indicate its recorded protein stability index; the sequence in question is ISRKLGDMRNSATFKSFEDRVGTI [TPD52L2]
3.07

###

Kindly state protein stability index for each of the entries shown.
# method: protein stability index of a GFP-peptide fusion (GPS, HEK-293T) (PSI 1-6); higher = more stable
# recorded_conditions: treatment: DMSO; c terminus: a fixed tail appended
One number for each entry.

Indicate its recorded protein stability index; the sequence in question is ASREENQAGPEATTSDPQDLDMKK [PALM]
5.53

Please report protein stability index for every entry that follows.
1. FGTIISGIQLLIVEYKDIASIHWD [SLC35F2]
2. EDGRPSLGSPYGQPPRFPVPHNGS [PDLIM4]

1: 3.15; 2: 4.8

Please report protein stability index for every entry that follows.
1. NYFVTMFDDYSATLPLTLIVILEN [SLC6A17]
2. EELPCTCPLCTSDRGSCVSTTEGI [RHOBTB3]
3. YSALREESAKDWETSPLPGMLAPA [PPFIA4]

3.05
4.53
4.26

Please report protein stability index for every entry that follows.
1. IIDSSLEDITYVLKPTFTKQQIAN [USP39]
2. EKSIEQTQIKGLKNKPKKMGHIKP [PHTF1]
3. STPFKPLALKTPPRVLTLSERPLD [MFF]

1. 2.69
2. 3.93
3. 4.08

###

# method: protein stability index of a GFP-peptide fusion (GPS, HEK-293T) (PSI 1-6); higher = more stable
# recorded_conditions: treatment: DMSO; c terminus: a fixed tail appended
observation_type: protein stability index
One number for each entry.

Past entries and their recorded results:
Indicate its recorded protein stability index; the sequence in question is RLKEMKLLRDQFVKALEDFEDLCD [FAM9B]
2.27

Indicate its recorded protein stability index; the sequence in question is LGLRQHHCRKCGQAVCGKCSSKRS [WDFY1]
4.28

Indicate its recorded protein stability index; the sequence in question is FDLAKGNAGKVNLPKELPADAVNL [PLAGL1]
4.41

Indicate its recorded protein stability index; the sequence in question is ETEARYSSQLAQMQCLISNVEAQL [KRT36]
3.26

Please report protein stability index for every entry that follows.
1. ELIGACEFMKDRLYFATLRNRPKS [CDC14A]
2. SGCDKEALLTGGGSENRNHRLLNM [RNF180]
3. PVTERQIEREHLIQLRRWQETRGE [TBC1D10A]

1: 2.1; 2: 3.58; 3: 4.25

###

Kindly state protein stability index for each of the entries shown.
# method: protein stability index of a GFP-peptide fusion (GPS, HEK-293T) (PSI 1-6); higher = more stable
# recorded_conditions: treatment: DMSO; c terminus: a fixed tail appended
Answers are plain numbers.

Past entries and their recorded results:
Indicate its recorded protein stability index; the sequence in question is GLLEAPGLQPVVFVLFLFAYLVTV [OR3A1]
2.53

Indicate its recorded protein stability index; the sequence in question is PPTQLEVNLEEIPGEGLLISWAFT [C2CD2L]
2.75

Indicate its recorded protein stability index; the sequence in question is KLTKESYPVVVAESMYGDFQEAMT [TENT5D]
3.16

Indicate its recorded protein stability index; the sequence in question is SVPIIGGFWETIFGNRIKRVKLIS [PHTF1]
2.29

Indicate its recorded protein stability index; the sequence in question is GKGSIKELFPTGKQLEPLVAPLAD [VPS39]
4.08

Indicate its recorded protein stability index; the sequence in question is HQRIPQSVRILGSLVAILLVFLIT [SLC29A1]
2.1

Please report protein stability index for every entry that follows.
1. SALTFLRVDQDKDKDCSLDCAGSP [SMOC2]
2. EIRKKVLKIYNKREEDFPSLREYN [MNAT1]
3. CRRCYDWIHRPGCRCKNSNTVYCK [SPRY1]

[4.92, 2.45, 2.82]

###

# method: protein stability index of a GFP-peptide fusion (GPS, HEK-293T) (PSI 1-6); higher = more stable
# recorded_conditions: treatment: DMSO; c terminus: a fixed tail appended
Kindly state protein stability index for each of the entries shown.
One number for each entry.

Past entries and their recorded results:
Indicate its recorded protein stability index; the sequence in question is REHCPENRERVVSLIEDLQRELEI [ZNF449]
3.91

Indicate its recorded protein stability index; the sequence in question is LTKLLASKSKEEVSSLISEKTNGA [FEM1C]
4.07

Indicate its recorded protein stability index; the sequence in question is MVFPAKRFCLVPSMEGVRWAFSCG [AASDHPPT]
2.74

Indicate its recorded protein stability index; the sequence in question is SRPAVGPPQPGCPAFIIVKLSPLR [ZSWIM9]
2.59

Indicate its recorded protein stability index; the sequence in question is YDPKENKWTRVASMSTRRLGVAVA [KLHL20]
2.29

Indicate its recorded protein stability index; the sequence in question is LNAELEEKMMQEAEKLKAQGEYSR [CCDC89]
3.61

Indicate its recorded protein stability index; the sequence in question is AELLKKQEELNRKAEELDRREREL [SCAMP3]
5.43

Indicate its recorded protein stability index; the sequence in question is LRESIASYLSLTSEDNTSFDRKKK [SLA]
3.9

Please report protein stability index for every entry that follows.
1. GAFPPRGPRPVQSVVPEMEESGAQ [CDK4]
2. KQTQCPADPLQLNKALSIILHLIC [FEM1C]

5.22
1.91
